- Tested system: PARP-1 full-length (human, UniProt P09874 2-1014)
- Sequence (P09874 2-1014): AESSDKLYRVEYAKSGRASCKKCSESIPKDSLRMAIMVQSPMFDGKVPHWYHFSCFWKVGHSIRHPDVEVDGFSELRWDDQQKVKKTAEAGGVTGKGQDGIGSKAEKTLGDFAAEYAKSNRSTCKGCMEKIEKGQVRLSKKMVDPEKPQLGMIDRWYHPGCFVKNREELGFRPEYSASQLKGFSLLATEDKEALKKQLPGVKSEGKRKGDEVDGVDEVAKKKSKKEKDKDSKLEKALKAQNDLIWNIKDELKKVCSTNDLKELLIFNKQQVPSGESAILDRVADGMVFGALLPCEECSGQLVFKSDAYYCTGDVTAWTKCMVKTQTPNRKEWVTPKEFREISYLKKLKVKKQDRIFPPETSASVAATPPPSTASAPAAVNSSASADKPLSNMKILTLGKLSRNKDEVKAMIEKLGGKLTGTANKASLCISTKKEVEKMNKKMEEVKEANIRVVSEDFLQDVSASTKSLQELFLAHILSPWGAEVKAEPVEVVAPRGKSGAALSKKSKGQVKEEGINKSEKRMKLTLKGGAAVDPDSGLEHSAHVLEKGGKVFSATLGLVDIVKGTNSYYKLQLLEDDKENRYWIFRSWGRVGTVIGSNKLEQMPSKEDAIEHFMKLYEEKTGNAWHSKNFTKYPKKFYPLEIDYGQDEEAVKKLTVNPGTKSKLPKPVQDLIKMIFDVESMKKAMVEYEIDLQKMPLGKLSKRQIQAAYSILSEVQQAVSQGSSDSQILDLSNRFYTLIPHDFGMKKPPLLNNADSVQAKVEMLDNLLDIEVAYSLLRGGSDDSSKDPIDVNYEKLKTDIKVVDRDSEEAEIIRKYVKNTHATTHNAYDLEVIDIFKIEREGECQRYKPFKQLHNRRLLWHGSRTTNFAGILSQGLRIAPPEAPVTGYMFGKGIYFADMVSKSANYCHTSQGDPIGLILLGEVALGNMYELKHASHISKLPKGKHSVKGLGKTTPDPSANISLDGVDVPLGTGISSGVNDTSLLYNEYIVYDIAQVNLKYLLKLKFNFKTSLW
- Method description: SPR; olaparib (10 mM [sic]); SPR (Biacore 8K): 20 mM HEPES, 150 mM NaCl, 1 mM TCEP, 0.05% Tween-20, 1% (v/v) (component not given), pH not stated, 25 C; PARP-1 0.078-20 nM; n = 6
- Recorded conditions: protein: recombinant; tags: N-terminal 6His-6Lys tag, TEV site; label: biotin (internal dT, streptavidin chip); dumbbell of two hairpins with T7 loops, nick between the 5' and 3' ends; stems 13 and 12 bp
Measure name: Kd (nM)

[
  {
    "Binder": "biotinylated hairpin DNA (dumbbell single-strand break model) (structured_DNA, biotin-dT at position 17 (written as T; between S1 and S2)) DNA: GACAACCCGGCGCTTTTTTTGCGCCGGGTTGTCTGGCCCAGTTCGTTTTTTTCGAACTGGGCCA",
    "Result value": 2.1
  }
]

The reported numbers originate from paper PMC7913765.
